Values compiled from paper PMC7076352.

Test Summary: in vivo
Set-up: species or system Sprague-Dawley (SD) rats
Recorded Conditions: Sprague-Dawley, rat, plasma, po, 60 mg/kg
Measured Metric: Tmax (h)
All answers are understood in h, so give the number only.

Param item = CC(C)=CCC[C@](C)(O[C@@H]1O[C@H](CO)[C@@H](O)[C@H](O)[C@H]1O)[C@H]1CC[C@]2(C)[C@@H]1[C@H](O)C[C@@H]1[C@@]3(C)CC[C@H](O)C(C)(C)[C@@H]3[C@@H](O[C@@H]3O[C@H](CO)[C@@H](O)[C@H](O)[C@H]3O[C@@H]3O[C@@H](C)[C@H](O)[C@@H](O)[C@H]3O)C[C@]12C [GRe, ginsenoside Re] ; retrieve measured Tmax.
2.6

Param item = CC(C)=CCC[C@](C)(O[C@@H]1O[C@H](CO)[C@@H](O)[C@H](O)[C@H]1O)[C@H]1CC[C@]2(C)[C@@H]1[C@H](O)C[C@@H]1[C@@]3(C)CC[C@H](O)C(C)(C)[C@@H]3[C@@H](O[C@@H]3O[C@H](CO)[C@@H](O)[C@H](O)[C@H]3O[C@@H]3OC[C@@H](O)[C@H](O)[C@H]3O)C[C@]12C [NGR1, notoginsenoside R1] ; retrieve measured Tmax.
1.15

Param item = CC(C)=CCC[C@](C)(O[C@@H]1O[C@H](CO)[C@@H](O)[C@H](O)[C@H]1O)[C@H]1CC[C@]2(C)[C@@H]1[C@H](O)C[C@@H]1[C@@]3(C)CC[C@H](O[C@@H]4O[C@H](CO)[C@@H](O)[C@H](O)[C@H]4O[C@@H]4O[C@H](CO)[C@@H](O)[C@H](O)[C@H]4O)C(C)(C)[C@@H]3CC[C@]12C [GRd, ginsenoside Rd] ; retrieve measured Tmax.
4.5
